B1: DVL3 (parent)
chain: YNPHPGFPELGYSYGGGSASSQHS

variants of: B1; assay: protein stability index of a GFP-peptide fusion (GPS, HEK-293T) (PSI 1-6); higher = more stable; conditions: c terminus: a fixed tail appended;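 further: lentivirally expressed fusions sorted by FACS into six bins by GFP to DsRed ratio, PSI derived from sequencing read proportions per bin multiplied by bin number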
measuredQuantity: protein stability index

INSERT INTO results (sequencevariant, measuredquantity, obsvalue) VALUES
  ('G15I', 'protein stability index', 2.63),
  ('S20D', 'protein stability index', 3.09),
  ('G15L', 'protein stability index', 2.24),
  ('H23K', 'protein stability index', 2.87),
  ('H23E', 'protein stability index', 2.6),
  ('H23C', 'protein stability index', 2.38),
  ('G15N', 'protein stability index', 2.63),
  ('P3D', 'protein stability index', 2.81),
  ('S24P', 'protein stability index', 3.36),
  ('P5S', 'protein stability index', 2.64),
  ('G11K', 'protein stability index', 3.13),
  ('H4K', 'protein stability index', 3.61),
  ('Y1V', 'protein stability index', 3.12),
  ('S13P', 'protein stability index', 2.58),
  ('P3Y', 'protein stability index', 3.18),
  ('S20R', 'protein stability index', 2.73),
  ('Y14D', 'protein stability index', 3.38),
  ('G16S', 'protein stability index', 2.95),
  ('P5G', 'protein stability index', 2.32),
  ('S20Q', 'protein stability index', 2.66),
  ('G15F', 'protein stability index', 2.54),
  ('G17Q', 'protein stability index', 2.87),
  ('S20W', 'protein stability index', 1.95),
  ('S21Y', 'protein stability index', 2.37),
  ('N2C', 'protein stability index', 2.12),
  ('G6S', 'protein stability index', 2.69),
  ('G17C', 'protein stability index', 3.22),
  ('L10F', 'protein stability index', 2.92),
  ('Y12T', 'protein stability index', 3.01),
  ('Q22T', 'protein stability index', 3.69),
  ('G11V', 'protein stability index', 2.44),
  ('S21E', 'protein stability index', 2.96),
  ('G16Q', 'protein stability index', 3.02),
  ('Q22D', 'protein stability index', 3.41),
  ('Y12W', 'protein stability index', 2.19),
  ('P3I', 'protein stability index', 2.86),
  ('S24R', 'protein stability index', 1.87),
  ('G16I', 'protein stability index', 2),
  ('Y1A', 'protein stability index', 4.36),
  ('P3A', 'protein stability index', 3.07),
  ('P5Y', 'protein stability index', 2.35),
  ('L10R', 'protein stability index', 3.64),
  ('E9C', 'protein stability index', 2.5),
  ('Y1E', 'protein stability index', 4.73),
  ('L10I', 'protein stability index', 2.6),
  ('G17H', 'protein stability index', 2.15),
  ('A19G', 'protein stability index', 3.57),
  ('N2E', 'protein stability index', 3.75),
  ('E9H', 'protein stability index', 2.19),
  ('G17N', 'protein stability index', 2.6),
  ('S13V', 'protein stability index', 1.71),
  ('N2W', 'protein stability index', 2.48),
  ('Y12C', 'protein stability index', 2.27),
  ('S20C', 'protein stability index', 2.88),
  ('Y12F', 'protein stability index', 3.09),
  ('G6D', 'protein stability index', 3.14),
  ('Y12H', 'protein stability index', 3.26),
  ('S24V', 'protein stability index', 2.41),
  ('F7A', 'protein stability index', 2.6),
  ('Y1Q', 'protein stability index', 4.53),
  ('Y12P', 'protein stability index', 1.99),
  ('S21M', 'protein stability index', 2.89),
  ('A19I', 'protein stability index', 2.3),
  ('S20T', 'protein stability index', 2.58);

The measured values listed here are drawn from the supplement of paper PMC10567573.
